Test: clinical
Conditions: human, in vivo, 160 mg, AUC0-336h, Mean
READOUT LABEL: AUC(0-t) (µg·h/mL)
The reply should contain only the number, in µg·h/mL.

So what does the record say about AUC(0-t) for CNC(=O)c1ccc(N2C(=S)N(c3ccc(C#N)c(C(F)(F)F)c3)C(=O)C2(C)C)cc1F [Enzalutamide] ?
239

----------
Test: clinical
Settings: human, in vivo, 160 mg, Vz/F, Mean
READOUT LABEL: Vd/F (L)
Express it in L; write the number only.

Recorded Vd/F of CNC(=O)c1ccc(N2C(=S)N(c3ccc(C#N)c(C(F)(F)F)c3)C(=O)C2(C)C)cc1F [Enzalutamide] , please.
79.8

----------
Assay: Rifampin plasma pharmacokinetics on day 8 after multiple doses of 600 mg once daily
Format: in vivo, human (healthy volunteers)
Details: human, plasma, oral, 600 mg, multiple doses of 600 mg rifampin once daily, read-out: AUCtau, Median
READOUT LABEL: AUC (ng·h/mL)
Value expressed in ng·h/mL; do not type the unit.

Given CO[C@H]1/C=C/O[C@@]2(C)Oc3c(C)c(O)c4c(O)c(c(/C=N/N5CCN(C)CC5)c(O)c4c3C2=O)NC(=O)/C(C)=C\C=C\[C@H](C)[C@H](O)[C@@H](C)[C@@H](O)[C@@H](C)[C@H](OC(C)=O)[C@@H]1C [Rifampin, rifampin] , state its recorded AUC.
35200

----------
Assay: clinical
Settings: human, in vivo, 160 mg, tmax, Median
READOUT LABEL: Tmax (min)
Quick note: give the figure in min, leave out the unit.

Fill in the blank: the reported Tmax of CNC(=O)c1ccc(N2C(=S)N(c3ccc(C#N)c(C(F)(F)F)c3)C(=O)C2(C)C)cc1F [Enzalutamide] is ____.
54.6

----------
Assay: Rifampin plasma pharmacokinetics on day 8 after multiple doses of 600 mg once daily
Format: in vivo, human (healthy volunteers)
Settings: human, plasma, oral, 600 mg, multiple doses of 600 mg rifampin once daily, read-out: C2h, Median
READOUT LABEL: concentration at 2 h (ng/mL)
The answer is to be given in ng/mL; state only the numeric part.

Item CO[C@H]1/C=C/O[C@@]2(C)Oc3c(C)c(O)c4c(O)c(c(/C=N/N5CCN(C)CC5)c(O)c4c3C2=O)NC(=O)/C(C)=C\C=C\[C@H](C)[C@H](O)[C@@H](C)[C@@H](O)[C@@H](C)[C@H](OC(C)=O)[C@@H]1C [Rifampin, rifampin] has what recorded concentration at 2 h?
6620

----------
Assay: clinical
Details: human, in vivo, 160 mg, t1/2, Median
READOUT LABEL: half-life

Requested read-out: half-life. Entry: CNC(=O)c1ccc(N2C(=S)N(c3ccc(C#N)c(C(F)(F)F)c3)C(=O)C2(C)C)cc1F [Enzalutamide]
85.7 h

----------
Experiment: Rifampin plasma pharmacokinetics on day 8 after multiple doses of 600 mg once daily
Assay type: in vivo, human (healthy volunteers)
Settings: human, plasma, oral, 600 mg, multiple doses of 600 mg rifampin once daily, read-out: Cmax, Median
READOUT LABEL: Cmax (ng/mL)
Only the number, expressed in ng/mL, is required.

So what does the record say about Cmax for CO[C@H]1/C=C/O[C@@]2(C)Oc3c(C)c(O)c4c(O)c(c(/C=N/N5CCN(C)CC5)c(O)c4c3C2=O)NC(=O)/C(C)=C\C=C\[C@H](C)[C@H](O)[C@@H](C)[C@@H](O)[C@@H](C)[C@H](OC(C)=O)[C@@H]1C [Rifampin, rifampin] ?
7040

----------
Assay: clinical
Details: human, in vivo
READOUT LABEL: Cmax (ng/mL)
Numbers only here, please. The scale is ng/mL.

So what does the record say about Cmax for CNC(=O)c1ccc(N2C(=S)N(c3ccc(C#N)c(C(F)(F)F)c3)C(=O)C2(C)C)cc1F [Enzalutamide] ?
4520

----------
Assay: Rifampin plasma pharmacokinetics on day 8 after multiple doses of 600 mg once daily
Type: in vivo, human (healthy volunteers)
Details: human, plasma, oral, 600 mg, multiple doses of 600 mg rifampin once daily, read-out: tmax, Mean
READOUT LABEL: Tmax (h)
Give the value in h but do not write h after it.

// query Tmax value for entry CO[C@H]1/C=C/O[C@@]2(C)Oc3c(C)c(O)c4c(O)c(c(/C=N/N5CCN(C)CC5)c(O)c4c3C2=O)NC(=O)/C(C)=C\C=C\[C@H](C)[C@H](O)[C@@H](C)[C@@H](O)[C@@H](C)[C@H](OC(C)=O)[C@@H]1C
1.72

----------
Assay: clinical
Settings: human, in vivo, 160 mg, Vz/F, Median
READOUT LABEL: Vd/F (L)
# unit: L | format: bare number

Dear colleague, I am looking for the recorded Vd/F of the following molecule: CNC(=O)c1ccc(N2C(=S)N(c3ccc(C#N)c(C(F)(F)F)c3)C(=O)C2(C)C)cc1F [Enzalutamide]
78.1

----------
Test: clinical
Settings: human, in vivo
READOUT LABEL: AUC(0-t)
Express the reported value numerically, then name its unit.

Return reported AUC(0-t); argument: CNC(=O)c1ccc(N2C(=S)N(c3ccc(C#N)c(C(F)(F)F)c3)C(=O)C2(C)C)cc1F [Enzalutamide]
86800 ng·h/mL

----------
Test: clinical
Conditions: human, in vivo, 160 mg, AUC0-t, Median
READOUT LABEL: AUC(0-t) (µg·h/mL)
Field: numeric (µg·h/mL). Do not append units.

For the compound shown here, CNC(=O)c1ccc(N2C(=S)N(c3ccc(C#N)c(C(F)(F)F)c3)C(=O)C2(C)C)cc1F [Enzalutamide] , give the reported AUC(0-t).
254

----------
Assay: clinical
Settings: human, in vivo, 160 mg, Cmax, Geometric LS Mean
READOUT LABEL: Cmax
# include the unit after the value

Return reported Cmax; argument: CNC(=O)c1ccc(N2C(=S)N(c3ccc(C#N)c(C(F)(F)F)c3)C(=O)C2(C)C)cc1F [Enzalutamide]
4860 ng/mL

----------
Assay: clinical
Conditions: human, in vivo, 160 mg, t1/2, Mean
READOUT LABEL: half-life (h)
Unit h implied. Number only.

Value lookup for half-life; key = CNC(=O)c1ccc(N2C(=S)N(c3ccc(C#N)c(C(F)(F)F)c3)C(=O)C2(C)C)cc1F [Enzalutamide]
90.1
